Quick reference: Ki of the listed items.
# TESTED SYSTEM: Cathepsin D (Homo sapiens, UniProt P07339)
# Sequence (P07339 65-162 limits assumed): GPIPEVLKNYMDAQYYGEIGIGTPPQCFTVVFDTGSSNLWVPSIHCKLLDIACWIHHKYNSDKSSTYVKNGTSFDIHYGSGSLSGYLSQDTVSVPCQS
# Sequence (P07339 169-412 limits assumed): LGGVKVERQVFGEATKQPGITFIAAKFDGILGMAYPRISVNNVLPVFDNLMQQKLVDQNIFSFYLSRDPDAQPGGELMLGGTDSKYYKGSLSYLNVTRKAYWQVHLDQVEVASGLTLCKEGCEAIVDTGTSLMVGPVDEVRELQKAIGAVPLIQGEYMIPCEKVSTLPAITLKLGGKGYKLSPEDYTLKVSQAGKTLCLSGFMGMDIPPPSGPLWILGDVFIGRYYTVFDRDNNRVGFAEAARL

- COMPOUND: "CCC(C)[C@H](NC(=O)[C@@H](C[C@H](O)[C@H](CC1CCCCC1)NC(=O)OC(C)(C)C)C(C)C)C(=O)NCc1ccccn1 (some centres undefined)"
  UNITS: "nM"
  QUALIFYING SIGN: "="
  Ki: 100
- COMPOUND: "CCC(C)[C@H](NC(=O)[C@@H](C[C@H](O)[C@H](CC1CCCCC1)NC(=O)[C@H](CC(N)=O)NC(=O)c1ccc2ccccc2n1)C(C)C)C(=O)NCc1ccccn1 (some centres undefined)"
  UNITS: "nM"
  QUALIFYING SIGN: "="
  Ki: 2
- COMPOUND: "CC[C@H](C)[C@H](NC(=O)[C@H](C(C)C)[C@@H](O)[C@H](O)[C@H](CC1CCCCC1)NC(=O)[C@H](Cc1c[nH]cn1)NC(=O)COc1cccc2ccccc12)C(=O)NCc1ccccn1"
  UNITS: "nM"
  QUALIFYING SIGN: ">"
  Ki: 1000
- COMPOUND: "CCC(C)[C@H](NC(=O)[C@@H](C[C@H](O)[C@H](CC1CCCCC1)NC(=O)[C@H](Cc1c[nH]cn1)NC(=O)COc1cccc2ccccc12)C(C)C)C(=O)NCc1ccccn1 (some centres undefined)"
  UNITS: "nM"
  QUALIFYING SIGN: "="
  Ki: 200
